ASSAY_EXPLANATION: NCI Yeast Anticancer Drug Screen. Data for the mlh1 strain (AID 171)
CONDITIONS_USED: S. cerevisiae mlh1 strain growth inhibition; at 1.2 µM
This is part of a sample that, as a whole, favours compounds with a hit. Of some 79,000 tested, about 15% had one in any assay. Calls of active or inactive are those of the source. No stated cut-off is given here; in the data, active means growth inhibition above about 70%; inactive means the rest.
Use one of these outcomes when replying: YES (active), NO (inactive)

Examples with answers:
> print(dat)
                                   molecule  category
1                  O=C(O)Cc1cc(F)ccc1C(=O)O        NO
2  CN(C)c1ccc(C2CC(C)(O)Oc3cc4c(cc32)OCO4)cc1 (centres undefined)        NO
3  CN(C)CCNC(=O)c1cccc2cc([N+](=O)[O-])ccc12        NO
4                   Oc1ccc(O)c(Cc2ccccc2)c1        NO
5  C/C(=N\Nc1ccc([N+](=O)[O-])cc1[N+](=O)[O-])c1sc(-n2nc(-c3ccccc3)cc2-c2ccccc2)nc1C        NO
6  Nc1ccn(C2OC(COP(=O)(O)O)C(O)C2O)c(=O)n1 (centres undefined)        NO

INPUT: Please indicate how the test categorized C=C(Cl)COC(=O)Nc1cccc(Cl)c1 .
OUTPUT: NO

INPUT: Please indicate how the test categorized CCCCCCN(CCCCCC)CC(O)c1ccnc2ccc(OC)cc12 (centres undefined) .
OUTPUT: NO
